These data points were gathered from patent US20220177604A1.

Molecular target: recombinant Motavizumab human IgE (rMota-hIgE) (human) (UniProt P01854)
Sequence (P01854 other isoform, or with tags, fused parts or gaps limits assumed, form in doubt): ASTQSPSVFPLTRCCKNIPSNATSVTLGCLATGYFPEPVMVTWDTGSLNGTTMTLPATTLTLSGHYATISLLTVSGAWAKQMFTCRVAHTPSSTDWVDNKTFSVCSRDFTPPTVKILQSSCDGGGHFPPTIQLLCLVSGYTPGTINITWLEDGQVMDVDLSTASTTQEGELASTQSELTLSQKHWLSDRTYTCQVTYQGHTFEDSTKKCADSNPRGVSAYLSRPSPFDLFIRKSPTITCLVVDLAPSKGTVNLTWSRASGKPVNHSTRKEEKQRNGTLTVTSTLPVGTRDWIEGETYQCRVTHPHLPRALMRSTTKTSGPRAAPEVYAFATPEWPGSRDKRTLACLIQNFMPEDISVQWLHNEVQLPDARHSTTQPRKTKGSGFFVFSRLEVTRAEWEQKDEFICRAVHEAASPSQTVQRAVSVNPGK
Experiment: hIgE binding ELISA
Reported Ratio OD450 pH 7.4/pH 6 by item:
Just the number, please, no unit attached.

Guide cases for Ratio OD450 pH 7.4/pH 6, answers given:
{"binder": "CL-2C mAb 29 (antibody, V domains shown) VH: QVQLVQSGAEVMKPGSSVKVSCKASGYTFSWYHLEWVRQAPGHGLEWMGEIDPGTFTTNYNEKFKARVTFTADTSTSTAYMELSSLRSEDTAVYYCARFSHFSGHNYDYFDYWGQGTLVTVSS VL: EIVMTQSPATLSVSPGERATLSCRASQSIGTNIHWYQQKPGQAPRLLIYHASESISGIPARFSGSGSGTEFTLTISSLQSEDFAVYYCQQSWSWPTTFGGGTKVEIK", "value.observed": 15.3}
{"binder": "CL-2C mAb 15 (antibody, V domains shown) VH: QVQLVQSGAEVMKPGSSVKVSCKASGYTFSWYWLEWVRQAPGHGLEWMGEIDPGTFTTNYNEKFKARVTFTADTSTSTAYMELSSLRSEDTAVYYCARFSHFSGSNYDYFDYWGQGTLVTVSS VL: EIVMTQSPATLSVSPGERATLSCRASQSIGTNIHWYQQKPGQAPRLLIYHASESISGIPARFSGSGSGTEFTLTISSLQSEDFAVYYCQQSWSHPTTFGGGTKVEIK", "value.observed": 4.07}
{"binder": "CL-2C mAb 26 (antibody, V domains shown) VH: QVQLVQSGAEVMKPGSSVKVSCKASGYTFSWYWLEWVRQAPGHGLEWMGEIDPGTFTTHYNEKFKARVTFTADTSTSTAYMELSSLRSEDTAVYYCARFSHFSGSHYDYFDYWGQGTLVTVSS VL: EIVMTQSPATLSVSPGERATLSCRASQSIGTNIHWYQQKPGQAPRLLIYHASESISGIPARFSGSGSGTEFTLTISSLQSEDFAVYYCQQSWSWPTTFGGGTKVEIK", "value.observed": 44.6}

Query: Look up and report measured Ratio OD450 pH 7.4/pH 6 for this entry: CL-2C mAb 3 (antibody, V domains shown) VH: QVQLVQSGAEVMKPGSSVKVSCKASGYTFSWYHLEWVRQAPGHGLEWMGEIDPGTFTTNYNEKFKARVTFTADTSTSTAYMELSSLRSEDTAVYYCARFSHFSGSHYDYFDYWGQGTLVTVSS VL: EIVMTQSPATLSVSPGERATLSCRASQHIGTNIHWYQQKPGQAPRLLIYYASESISGIPARFSGSGSGTEFTLTISSLQSEDFAVYYCQQSWSHPTTFGGGTKVEIK
Reply: 6.44

Query: Look up and report measured Ratio OD450 pH 7.4/pH 6 for this entry: CL-2C mAb 1 (antibody, V domains shown) VH: QVQLVQSGAEVMKPGSSVKVSCKASGYTFSWYWLEWVRQAPGHGLEWMGEIDPGTFTTHYNEKFKARVTFTADTSTSTAYMELSSLRSEDTAVYYCARFSHFSGSHYDYFDYWGQGTLVTVSS VL: EIVMTQSPATLSVSPGERATLSCRASQHIGTNIHWYQQKPGQAPRLLIYYASESISGIPARFSGSGSGTEFTLTISSLQSEDFAVYYCQQSWSHPTTFGGGTKVEIK
Reply: 6.94
